This collection of values is drawn from ChEMBL document CHEMBL5223130.

test system: SARS-CoV-2; assay type: functional, organism-based, Vero E6; settings: Severe acute respiratory syndrome coronavirus 2, Vero C1008
measured_metric: EC50 (µM)
The answer is to be given in µM; state only the numeric part.

q: What EC50 value was documented for this compound, "O=c1c(O)c(-c2cc(O)c(O)c(O)c2)oc2cc(O)cc(O)c12" ?
a: 8

---

Quick reference for pEC50 among some compounds
system: SARS-CoV-2; type: functional, organism-based, Vero E6; settings: Severe acute respiratory syndrome coronavirus 2, 107, Vero C1008
Reminder that pEC50 means the negative base-10 logarithm of the concentration expressed in mol/L.

{"mol": "O=C[C@H](C[C@@H]1CCNC1=O)NC(=O)[C@@H]1[C@H]2CCC[C@H]2CN1C(=O)COc1ccc(Cl)cc1Cl", "pEC50": 6.27}

Could you now consider this next compound?
q: What pEC50 value was documented for this compound, "COc1ccc(OCC(=O)N2C[C@H]3[C@@H]([C@H]2C(=O)N[C@H](C=O)C[C@@H]2CCNC2=O)C3(C)C)cc1" ?
a: 6.07
